Source: patent US10934244B2

assay: Pharmacokinetic analysis of a single I.P. dose in rats; assay type: in vivo; conditions: rat, ip; single I.P. dose 10 mg/kg, Sprague-Dawley rats, plasma
Readout name: Cmax (ng/mL)
// return numeric value only (unit: ng/mL, not printed)

Tell me measured Cmax for C[C@H](Oc1ccc(Br)cc1)C(=O)O [Compound C8, (2S)-2-(4-bromophenoxy)propanoic acid] please. 44600

====

experiment: Pharmacokinetic analysis of a single I.P. dose in rats; assay type: in vivo; settings: rat, ip; single I.P. dose 10 mg/kg, Sprague-Dawley rats, plasma; read-out: t½ (converted)
Readout name: half-life
Could you kindly put the unit after your number?

Tell me measured half-life for `C[C@H](Oc1ccc(Br)cc1)C(=O)O` please. 3.7 h
